The reported numbers originate from ChEMBL document CHEMBL5727994.

# assay-name: Modified Recombinant Enzyme Assay: Glutaminase reaction buffer was prepared [50 mM Tris-HCl pH 8.8, 150 mM K2HPO4, […] EDTA, 0.1 mg/ml BSA (Calbiochem no. 2960), 1 mM DTT, 2 mM NADP+(Sigma Aldrich no. N5755), and 0.01% TX-100] and used to make 3×-enzyme-containing solution, 3×-substrate-containing solution, and 3×-inhibitor-containing solution (see below) Inhibitor-containing solution was made
assay-endpoint: pIC50
Notebook: values listed as pIC50 are -log10 of the concentration (mol/L).

Recorded pIC50, per entry:
- O=C(Cc1ccc(O)c(OC(F)(F)F)c1)Nc1ccc(CCCCc2nnc(NC(=O)Cc3ccccn3)s2)nn1: 7.38
- O=C(Cc1ccccn1)Nc1nnc(CCCCc2ccc(NC(=O)C(O)c3ccccc3)nn2)s1 (centres undefined): 6.72
- CC(C)(C)OC(=O)Nc1cccc(CC(=O)Nc2nnc(CCCCc3ccc(NC(=O)Cc4cccc(OC(F)(F)F)c4)nn3)s2)n1: 6.85

Consider the compound `O=C(Cc1ccc(Cl)c(OC(F)(F)F)c1)Nc1ccc(CCCCc2nnc(NC(=O)Cc3ccccn3)s2)nn1` and give its measured pIC50.
7.80
